// data source = patent US20130165368A1

Could you please report measured MIC for the items listed next?
# Test system: MRSA EMRSA 15 1758/98
# test-summary: MIC agar dilution, MRSA strain 43
# Format: cell-based
# experimental-conditions: Staphylococcus aureus, 22 hrs
The response must be a number in µM with no trailing unit.

Prompt: What reported MIC corresponds to CCCCCCCCCCCCOCCOCCOCCOCCOCCOCCO [L6, Hexaethylene Glycol Monododecyl Ether] on MRSA EMRSA 15 1758/98?
Completion: 110

Prompt: // fetch MRSA EMRSA 15 1758/98 MIC for CCCCCCCCCCCCOCCOCCOCCOCCOCCOCCOCCO [L7, Heptaethylene Glycol Monododecyl Ether]
Completion: 220

Prompt: Any idea what MIC came out for CCCCCCCCCCCCOCCOCCOCCOCCO [L4, Tetraethylene Glycol Monododecyl Ether] on MRSA EMRSA 15 1758/98?
Completion: 55

Prompt: GET /values?readout=MIC&system=MRSA EMRSA 15 1758/98&item= CCCCCCCCCCCCOCCOCCOCCOCCOCCO [L5, Pentaethylene Glycol Monododecyl Ether]
Completion: 110

Prompt: What measured MIC is associated with CCCCCCCCCCCCOCCOCCOCCO [L3, Triethylene Glycol Monododecyl Ether] on MRSA EMRSA 15 1758/98?
Completion: 55

Prompt: What MIC appears in the records for this compound with MRSA EMRSA 15 1758/98? CCCCCCCCCCCCOCCO [L1, Ethylene Glycol Monododecyl Ether]
Completion: 220

Prompt: Request - read-out MIC | tested on MRSA EMRSA 15 1758/98 | compound CCCCCCCCCCCCOCCOCCO [L2, Diethylene Glycol Monododecyl Ether]
Completion: 110

###

# Tested on: Bacillus subtilis
# test-summary: MIC agar dilution, micro-organism 18 (9372)
# Format: cell-based
# experimental-conditions: Bacillus subtilis 9372; 48 hrs; read-out: MIC
Answer each item with its documented MIC.
Numeric answer only, unit µM assumed.

Prompt: Tell me the measured MIC of CCCCCCCCCCCCOCCOCCO , please.
Completion: 220

Prompt: May I ask what MIC has been recorded for CCCCCCCCCCCCOCCOCCOCCOCCOCCOCCOCCOCCO ?
Completion: 110

Prompt: Quick one: MIC for CCCCCCCCCCCCOCCO ?
Completion: 440

Prompt: Query (compound): CCCCCCCCCCCCOCCOCCOCCOCCO ; field requested: MIC
Completion: 110

Prompt: What MIC value was documented for this compound, CCCCCCCCCCCCOCCOCCOCCOCCOCCOCCOCCO ?
Completion: 110

Prompt: What MIC value was documented for this compound, CCCCCCCCCCCCCCOCCOCCOCCOCCOCCOCCOCCOCCO ?
Completion: 110

Prompt: Please report the recorded MIC for CCCCCCCCCCCCOCCOCCOCCO .
Completion: 110

Prompt: Value lookup for MIC; key = CCCCCCCCCCCCOCCOCCOCCOCCOCCOCCO
Completion: 110

Prompt: Which MIC is reported for this compound? CCCCCCCCCCCCOCCOCCOCCOCCOCCO
Completion: 110

Prompt: Quick one: MIC of CCCCCCCCCCCCCCOCCOCCOCCOCCO ?
Completion: 220

###

# Test system: Enterococcus faecalis (VRE) PHLS URINE 2000
# test-summary: MIC agar dilution, VRE strain 21
# Format: cell-based
# experimental-conditions: 48 hrs
quantity: MIC (µM)
Write down the numeric answer in µM and omit the unit.

Prompt: Requested field: MIC. Item: CCCCCCCCCCCCOCCOCCOCCOCCOCCO [L5, Pentaethylene Glycol Monododecyl Ether]
Completion: 110

Prompt: Param item = CCCCCCCCCCCCOCCOCCOCCOCCOCCOCCOCCO [L7, Heptaethylene Glycol Monododecyl Ether] ; retrieve measured MIC.
Completion: 880

Prompt: For CCCCCCCCCCCCOCCOCCOCCOCCO [L4, Tetraethylene Glycol Monododecyl Ether] , what is its reported MIC?
Completion: 110

Prompt: Quick one: MIC for CCCCCCCCCCCCOCCOCCOCCO [L3, Triethylene Glycol Monododecyl Ether] ?
Completion: 220

Prompt: Which MIC is listed for CCCCCCCCCCCCOCCOCCOCCOCCOCCOCCOCCOCCO [L8, Octaethylene Glycol Monododecyl Ether] ?
Completion: 220

Prompt: Reported MIC, compound CCCCCCCCCCCCOCCOCCOCCOCCOCCOCCO [L6, Hexaethylene Glycol Monododecyl Ether] : ____
Completion: 220

Prompt: Entry under review: CCCCCCCCCCCCOCCOCCO [L2, Diethylene Glycol Monododecyl Ether] . Reported MIC?
Completion: 220

Prompt: Would you mind telling me what MIC value was observed for CCCCCCCCCCCCOCCO [L1, Ethylene Glycol Monododecyl Ether] ?
Completion: 220

###

# Test system: MRSA EMRSA 15 21268/98
# test-summary: MIC agar dilution, MRSA strain 40
# Format: cell-based
# experimental-conditions: Staphylococcus aureus, 48 hrs
quantity: MIC (µM)
Respond numerically; units are µM and should not be typed.

Prompt: Form field - read-out: MIC; system: MRSA EMRSA 15 21268/98; submitted item: CCCCCCCCCCCCOCCOCCOCCOCCOCCOCCO
Completion: 110

Prompt: Can you look up MIC on MRSA EMRSA 15 21268/98 for CCCCCCCCCCCCOCCO ?
Completion: 220

Prompt: API: value(readout= MIC, system= MRSA EMRSA 15 21268/98, query= CCCCCCCCCCCCOCCOCCOCCOCCOCCO )
Completion: 110

Prompt: Any idea what MIC came out for CCCCCCCCCCCCOCCOCCOCCO on MRSA EMRSA 15 21268/98?
Completion: 110

Prompt: Value wanted: MIC (MRSA EMRSA 15 21268/98) of entry CCCCCCCCCCCCOCCOCCOCCOCCO
Completion: 55

Prompt: Give MRSA EMRSA 15 21268/98 MIC for CCCCCCCCCCCCOCCOCCO
Completion: 110

###

# System: Enterococcus faecium (VRE) 255693 N. Tyneside
# test-summary: MIC agar dilution, VRE strain 22
# Type: cell-based
# experimental-conditions: 48 hrs
quantity: MIC (µM)
The reply should be a number in µM, with the unit left off.

Prompt: Look at this compound and give its reported MIC. CCCCCCCCCCCCOCCO [L1, Ethylene Glycol Monododecyl Ether]
Completion: 440

Prompt: Give its MIC value. Item: CCCCCCCCCCCCOCCOCCOCCOCCOCCO [L5, Pentaethylene Glycol Monododecyl Ether]
Completion: 220

Prompt: Requested read-out: MIC. Entry: CCCCCCCCCCCCOCCOCCOCCOCCO [L4, Tetraethylene Glycol Monododecyl Ether]
Completion: 880

Prompt: Data request, read-out MIC, for CCCCCCCCCCCCOCCOCCO [L2, Diethylene Glycol Monododecyl Ether]
Completion: 440

###

# System: MRSA EMRSA 16 03732/95
# test-summary: MIC agar dilution, MRSA strain 45
# Type: cell-based
# experimental-conditions: Staphylococcus aureus, 22 hrs
quantity: MIC (µM)
The reply should be a number in µM, with the unit left off.

Prompt: State the recorded MIC for this entry: CCCCCCCCCCCCOCCOCCOCCOCCOCCOCCO
Completion: 220

Prompt: I have this compound here, CCCCCCCCCCCCOCCOCCO , and I need its recorded MIC.
Completion: 110

Prompt: # input compound: CCCCCCCCCCCCOCCOCCOCCOCCOCCO ; wanted: its MIC
Completion: 110

Prompt: Which MIC value belongs to CCCCCCCCCCCCOCCOCCOCCOCCO ?
Completion: 110

Prompt: Which MIC reading was recorded for the compound CCCCCCCCCCCCOCCO ?
Completion: 220

Prompt: I have this compound here, CCCCCCCCCCCCOCCOCCOCCO , and I need its recorded MIC.
Completion: 110

###

# Tested on: MRSA EMRSA 16 18200/95
# test-summary: MIC agar dilution, MRSA strain 48
# Format: cell-based
# experimental-conditions: Staphylococcus aureus, 22 hrs
quantity: MIC

Prompt: Any idea what MIC was measured for CCCCCCCCCCCCOCCOCCOCCOCCOCCOCCOCCOCCO ?
Completion: > 440 µM

Prompt: Returns the measured MIC for the input molecule. Input: CCCCCCCCCCCCOCCOCCOCCOCCOCCOCCO
Completion: 110 µM

Prompt: Entry CCCCCCCCCCCCOCCOCCOCCO : reported MIC = ?
Completion: 110 µM

Prompt: I have this molecule here, CCCCCCCCCCCCOCCOCCOCCOCCOCCO , and I need its recorded MIC.
Completion: 110 µM

Prompt: MIC lookup needed for CCCCCCCCCCCCOCCOCCOCCOCCOCCOCCOCCO , thanks.
Completion: 220 µM

Prompt: Query (molecule): CCCCCCCCCCCCOCCOCCO ; field requested: MIC
Completion: 110 µM

Prompt: I have this molecule here, CCCCCCCCCCCCOCCO , and I need its recorded MIC.
Completion: 220 µM

Prompt: Fill blank: measured MIC of the molecule CCCCCCCCCCCCOCCOCCOCCOCCO is ____.
Completion: 55 µM
